Recorded Mock MFI values for a group of binders are listed next.
system.tested: human Mac-1 (integrin αMβ2, CD11b/CD18) (human, UniProt P11215 17-1152; P05107 23-769)
assay.method.text: flow cytometry, HEK293/Mac-1 cells (clone 1-4), PBS (Mock)
Give a bare numeral; the unit MFI is implied.

{"binder": "anti-Mac-1 antibody clone 24G09 (antibody, human IgG4, V domains shown) VH: EVQLVESGGGLVQPGGSLRLSCAASGFTFSDYAIGWVRQAPGKGLEWVSTIYWSGSNAYYADSVKGRFTISRDNSKNTLYLQMNSLRAEDTAVYYCARLFTLGYHGFDVWGQGTLVTVSS VL: DIQMTQSPSSLSASVGDRVTITCRASQSINTYLNWYQQKPGKAPKLLIYDASNLQSGVPSRFSGSGSGTDFTLTISSLQPEDFATYYCQQYDDLPFTFGQGTKVEIK", "readout.value": 29500}

Please find the next binder below.
Name the recorded Mock MFI for anti-Mac-1 antibody clone 28E07-HH (antibody, human IgG4, V domains shown) VH: QVQLVQSGAEVKKPGASVKVSCKASGYSFTDYNMNWVRQAPGQGLEWMGEINPGYGTSRYNQKFKDRVTMTRDTSISTAYMELSRLRSDDTAVYYCARADVDYGDVMDYWGQGTLVTVSS VL: EIVLTQSPATLSLSPGERATLSCSASSSVSYMHWYQQKPGQAPRLLIYDTSKLASGIPARFSGSGSGTDFTLTISSLEPEDFAVYYCQQWSSNPPTFGQGTKLEIK . 1.03e+06
